Experiment: Cmax in ICR mouse at 50 mg/kg, ip
Format: ADME, organism-based
Parameters: dose 50 mg/kg, route intraperitoneal
Details: in vivo
Below, each of the compounds is paired with its reported Cmax value.
Metric Name: Cmax (µM)

Compound: CN1CCN(c2cc(F)c3c(c2)N(C)C(=O)C32CCN(c3nc4c(c(=O)[nH]3)CCCN4C)CC2)CC1
Assay Result: 53.6

Compound: C[C@@H]1CN(c2cc(F)c3c(c2)N(C)C(=O)C32CCN(c3nc4c(c(=O)[nH]3)CCCN4C)CC2)C[C@H](C)O1
Assay Result: 102

---

Test: Plasma concentration in ICR mouse at 20 mg/kg, po measured after 4 hrs
Assay type: ADME, organism-based
Metric Name: concentration at 4 h (µM)

Compound: C[C@@H]1CN(c2cc(F)c3c(c2)N(C)C(=O)C32CCN(c3nc4c(c(=O)[nH]3)CCCN4C)CC2)C[C@H](C)O1
Assay Result: 26.9

---

Assay: Plasma concentration in human COLO320DM cells xenografted Prkdc-NOD-SCID CB17 mouse at 10 mg/kg, po administered twice daily for 5 days followed by 2 days interval for 2 cycles measured 4 hrs post-last dose
Assay type: ADME, organism-based

Compound: C[C@@H]1CN(c2cc(F)c3c(c2)N(C)C(=O)C32CCN(c3nc4c(c(=O)[nH]3)CCCN4C)CC2)C[C@H](C)O1
concentration at 4 h / µM: 10.1

---

Test: Tmax in ICR mouse at 20 mg/kg, po
Assay type: ADME, organism-based
Settings: in vivo

Compound: C[C@@H]1CN(c2cc(F)c3c(c2)N(C)C(=O)C32CCN(c3nc4c(c(=O)[nH]3)CCCN4C)CC2)C[C@H](C)O1
Tmax: 1 h

---

Assay: Net efflux ratio of permeability across basolateral to apical side over apical to basolateral side in MDCK2-MDR1 cells to MDCK2 cells
Format: ADME, cell-based, Canis lupus familiaris
Settings: dog, mdck
This listing pairs compounds with measured Ratio.

Compound: C[C@@H]1CN(c2cc(F)c3c(c2)N(C)C(=O)C32CCN(c3nc4c(c(=O)[nH]3)CCCN4C)CC2)C[C@H](C)O1
Ratio: 1.1
--
Compound: CN1CCN(CCOc2cc(F)c3c(c2)N(C)C(=O)C32CCN(c3nc4c(c(=O)[nH]3)CCCN4C)CC2)CC1
Ratio: 6.6
--
Compound: CN1CCCc2c1nc(N1CCC3(CC1)C(=O)N(C)c1cc(OCC(=O)O)cc(F)c13)[nH]c2=O
Ratio: 1
--
Compound: CN1CCCc2c1nc(N1CCC3(CC1)C(=O)N(C)c1cc(N4CCCCC4)cc(F)c13)[nH]c2=O
Ratio: 2.3
--
Compound: CN1CCN(c2cc(F)c3c(c2)N(C)C(=O)C32CCN(c3nc4c(c(=O)[nH]3)CCCN4C)CC2)CC1
Ratio: 4.3
--
Compound: CN1CCCc2c1nc(N1CCC3(CC1)C(=O)N(CC1COC1)c1cc(F)cc(F)c13)[nH]c2=O
Ratio: 7
--
Compound: CN1CCCc2c1nc(N1CCC3(CC1)C(=O)N(C)c1cc(OCCN4CCCCC4)cc(F)c13)[nH]c2=O
Ratio: 1.9
--
Compound: CN1CCCc2c1nc(N1CCC3(CC1)C(=O)N(C)c1cc(OCCN4CCOCC4)cc(F)c13)[nH]c2=O
Ratio: 5.7

---

Assay: Net efflux ratio of permeability across basolateral to apical side over apical to basolateral side in MDCK2-MDR1 cells to MDCK2 cells
Format: ADME, cell-based, Canis lupus familiaris
Details: dog, mdck

Molecule: CN(C)CCOc1cc(F)c2c(c1)N(C)C(=O)C21CCN(c2nc3c(c(=O)[nH]2)CCCN3C)CC1
Ratio: 2.5
//
Molecule: CN1CCCc2c1nc(N1CCC3(CC1)C(=O)N(CC#N)c1cc(F)cc(F)c13)[nH]c2=O
Ratio: 5.1
//
Molecule: COc1cc(F)c2c(c1)N(C)C(=O)C21CCN(c2nc3c(c(=O)[nH]2)CCCN3C)CC1
Ratio: 2.5
//
Molecule: CN1CCC(Oc2cc(F)c3c(c2)N(C)C(=O)C32CCN(c3nc4c(c(=O)[nH]3)CCCN4C)CC2)CC1
Ratio: 2.5
//
Molecule: CN1CCCc2c1nc(N1CCC3(CC1)C(=O)N(CC(F)(F)F)c1cc(F)cc(F)c13)[nH]c2=O
Ratio: 2.9
//
Molecule: CN1CCCc2c1nc(N1CCC3(CC1)C(=O)N(C)c1cc(N4CCOCC4)cc(F)c13)[nH]c2=O
Ratio: 4.1
//
Molecule: CN1CCCc2c1nc(N1CCC3(CC1)C(=O)N(CCO)c1cc(F)cc(F)c13)[nH]c2=O
Ratio: 3.8
//
Molecule: CN1CCCc2c1nc(N1CCC3(CC1)C(=O)N(C)c1cc(N4CCNCC4)cc(F)c13)[nH]c2=O
Ratio: 1.3
//
Molecule: CN1CCCc2c1nc(N1CCC3(CC1)C(=O)N(CS(C)(=O)=O)c1cc(F)cc(F)c13)[nH]c2=O
Ratio: 3.6
//
Molecule: COCCOc1cc(F)c2c(c1)N(C)C(=O)C21CCN(c2nc3c(c(=O)[nH]2)CCCN3C)CC1
Ratio: 3.6
//
Molecule: CN(C)c1cc(F)c2c(c1)N(C)C(=O)C21CCN(c2nc3c(c(=O)[nH]2)CCCN3C)CC1
Ratio: 2.5
//
Molecule: CN1CCCc2c1nc(N1CCC3(CC1)C(=O)N(CC(O)CO)c1cc(F)cc(F)c13)[nH]c2=O (stereo not drawn)
Ratio: 3.9
//
Molecule: CN1CCCc2c1nc(N1CCC3(CC1)C(=O)N(C)c1cc(F)cc(F)c13)[nH]c2=O
Ratio: 2.8
//
Molecule: CN1CCCc2c1nc(N1CCC3(CC1)C(=O)N(CC(=O)O)c1cc(F)cc(F)c13)[nH]c2=O
Ratio: 1.3
//
Molecule: CN1CCCc2c1nc(N1CCC3(CC1)C(=O)N(C)c1cc(OCCO)cc(F)c13)[nH]c2=O
Ratio: 2.4
//
Molecule: COCCN1C(=O)C2(CCN(c3nc4c(c(=O)[nH]3)CCCN4C)CC2)c2c(F)cc(F)cc21
Ratio: 3.7
//
Molecule: CN1CCCc2c1nc(N1CCC3(CC1)C(=O)N(C)c1cc(OCCN4CCCC4)cc(F)c13)[nH]c2=O
Ratio: 3.1
//
Molecule: C[C@@H]1CN(c2cc(F)c3c(c2)N(C)C(=O)C32CCN(c3nc4c(c(=O)[nH]3)CCCN4C)CC2)C[C@H](C)N1
Ratio: 3.7

---

Test: Stability in human liver microsomes assessed as parent compound remaining at 1 uM measured after 60 mins in presence of NADPH by LC-MS/MS analysis
Assay type: ADME, Microsome
Conditions: read-out: Stability
Label Satisfied when remaining at 1 h, 1 µM is strictly below 30%; at or above that, label Not satisfied.

Compound: CN1CCCc2c1nc(N1CCC3(CC1)C(=O)N(C)c1cc(OCC(=O)O)cc(F)c13)[nH]c2=O
Assigned Class: Not satisfied
//
Compound: CN1CCCc2c1nc(N1CCC3(CC1)C(=O)N(CC#N)c1cc(F)cc(F)c13)[nH]c2=O
Assigned Class: Satisfied
//
Compound: CN1CCCc2c1nc(N1CCC3(CC1)C(=O)N(CC(=O)O)c1cc(F)cc(F)c13)[nH]c2=O
Assigned Class: Not satisfied
//
Compound: CN1CCCc2c1nc(N1CCC3(CC1)C(=O)N(C)c1cc(N4CCNCC4)cc(F)c13)[nH]c2=O
Assigned Class: Satisfied
//
Compound: CN1CCCc2c1nc(N1CCC3(CC1)C(=O)N(CS(C)(=O)=O)c1cc(F)cc(F)c13)[nH]c2=O
Assigned Class: Satisfied
//
Compound: CN(C)CCOc1cc(F)c2c(c1)N(C)C(=O)C21CCN(c2nc3c(c(=O)[nH]2)CCCN3C)CC1
Assigned Class: Not satisfied
//
Compound: CN1CCCc2c1nc(N1CCC3(CC1)C(=O)N(C)c1cc(F)cc(F)c13)[nH]c2=O
Assigned Class: Satisfied
//
Compound: COCCN1C(=O)C2(CCN(c3nc4c(c(=O)[nH]3)CCCN4C)CC2)c2c(F)cc(F)cc21
Assigned Class: Satisfied

---

Test: Half life in ICR mouse at 50 mg/kg, ip
Format: ADME, organism-based
Settings: in vivo

Compound: CN1CCN(c2cc(F)c3c(c2)N(C)C(=O)C32CCN(c3nc4c(c(=O)[nH]3)CCCN4C)CC2)CC1
half-life (h): 2.5
--
Compound: C[C@@H]1CN(c2cc(F)c3c(c2)N(C)C(=O)C32CCN(c3nc4c(c(=O)[nH]3)CCCN4C)CC2)C[C@H](C)O1
half-life (h): 1.9

---

Test system: COLO 320DM
Assay: Antiproliferative activity against human COLO320DM cells assessed as inhibition of cell growth measured after 4 days by CellTiter-Glo assay
Type: functional
Settings: 96 h
Metric Name: GI50 (µM)

Compound: C[C@@H]1CN(c2cc(F)c3c(c2)N(C)C(=O)C32CCN(c3nc4c(c(=O)[nH]3)CCCN4C)CC2)C[C@H](C)O1
Tested On: COLO 320DM
Assay Result: 0.23

Compound: CN1CCCc2c1nc(N1CCC3(CC1)C(=O)N(CC(F)(F)F)c1cc(F)cc(F)c13)[nH]c2=O
Tested On: COLO 320DM
Assay Result: 0.07

Compound: O=c1[nH]c(N2CCC3(CC2)CN(CCO)c2cc(F)cc(F)c23)nc2c1CCCC2
Tested On: COLO 320DM
Assay Result: 1.63

Compound: CN1CCCc2c1nc(N1CCC3(CC1)C(=O)N(CC#N)c1cc(F)cc(F)c13)[nH]c2=O
Tested On: COLO 320DM
Assay Result: 0.44

Compound: COCCN1C(=O)C2(CCN(c3nc4c(c(=O)[nH]3)CCCN4C)CC2)c2c(F)cc(F)cc21
Tested On: COLO 320DM
Assay Result: 0.05
